Data provenance is patent US20190071480A1.

Entries annotated with measured Kd
targetEntity: T1, extracellular domain of activin receptor type IIB (ActRIIBecd), biotinylated (Homo sapiens (Human), UniProt Q13705 27-117, amino-biotinylated with amine-PEG3-Biotin)
T1 construct: immobilised on a streptavidin-coated sensor chip; also called biotinylated ActRIIBecd; extracellular domain of ActRIIB
T1 sequence: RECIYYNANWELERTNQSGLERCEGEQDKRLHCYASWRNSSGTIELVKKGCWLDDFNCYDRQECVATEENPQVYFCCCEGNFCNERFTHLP
methodSummary: Mean KD column of Table 5; method not restated (BIAcore as Example 5); species also listed in Table 4
Give just the numeric value; nM need not be written.

Past entries and their recorded results:
Which Kd is listed for SEQ ID NO: 324, cysteine pairs C15-C15^b, C80-C114^b, C79-C112^b, C44-C48^a (designed binder, disulfides C15-C15 (inter), C80-C114 (inter), C79-C112 (inter), C44-C48 (intra), homodimer by intermolecular disulfide) AQAKHKQRKRLKSSCKRHPLYVDFKDVGWNDHAVAPPGYHAFYCHGECPFPLADHLNSDNHAIVQTKVNSVNSKIPKACCVPTELSAISMLYLDENEKVVLKNYQDMVVEGCGCR ?
9.11

Consider next the binder SEQ ID NO: 194, cysteine pairs C23-C27^a (designed binder, disulfides C23-C27 (intra)) VDFSDVGWNDWIVAPPGYHAFYCHGECPFPLADHLNSTNHAIVQTLVNSVAQAKHKQRKRLKSSCKRHPLY in the same way.
18.1

Okay, next one:
Which Kd is listed for SEQ ID NO: 188, cysteine pairs C44-C48^a (designed binder, disulfides C44-C48 (intra)) AQAKHKQRKRLKSSCKRHPLYVDFSDVGWNDWIVAPPGYHAFYCHGECPFPLADHLNSTNHAIVQTLVNSV ?
21.5
